# Tested on: anti-CD28 scFv
# Procedure Text: Phage binding ELISA (panning) of clonal phage on anti-CD28 scFv, with or without CD28 soluble protein
# Test Parameters: Phage binding ELISA; captured biotinylated anti-CD28 scFv, blocking buffer alone
Test Readout: CD28 scFv signal

{"Substance": "Phage-92 (MDWCPRHLWHECFF)", "Value": 2.583}
{"Substance": "Phage-91 (MDWCPRDLWFLCYN)", "Value": 2.587}
{"Substance": "Phage-93 (MDWCPRYLWTVCFS)", "Value": 2.582}
{"Substance": "Phage-99 (MDWCPRYLWNMCFH)", "Value": 2.564}
{"Substance": "Phage-113 (MDWCPRDLWNVCFF)", "Value": 2.520}
{"Substance": "Phage-96 (MDWCPRTLWAYCFN)", "Value": 2.571}
{"Substance": "Phage-98 (MDWCPKYLWDVCFN)", "Value": 2.566}
{"Substance": "Phage-110 (MDWCPRYLWDECFN)", "Value": 2.529}
{"Substance": "Phage-111 (MDWCPFYLWNECFY)", "Value": 2.528}
{"Substance": "Phage-109 (MDWCPKNLWHVCFN)", "Value": 2.530}
{"Substance": "Phage-115 (MDWCPRYLWHECFN)", "Value": 2.490}
{"Substance": "Phage-87 (MDWCPKDLWYLCFA)", "Value": 2.608}
{"Substance": "Phage-112 (MHWCPRALWDVCYN)", "Value": 2.528}

###

# Test system: anti-CD28 scFv
# Procedure Text: Phage binding ELISA (panning) of clonal phage on anti-CD28 scFv, with or without CD28 soluble protein
# Test Parameters: clonal phage supernatant; background signal
Our labelling divides records by Phage binding ELISA Backgroud signal into ranges: low bin (below 0.07), mid bin (0.07 to below 0.1), high bin (0.1 or more)

{"Substance": "Phage-344 (MDWCPRHLWVHCFS)", "Label": "mid bin"}
{"Substance": "Phage-59 (MDWCPRDSWHLCFA)", "Label": "mid bin"}
{"Substance": "Phage-288 (MDWCPIALWDFCFA)", "Label": "mid bin"}
{"Substance": "Phage-305 (MDWCPRDLWTECFS)", "Label": "mid bin"}
{"Substance": "Phage-233 (MTWCPTSFWNRCLD)", "Label": "high bin"}
{"Substance": "Phage-180 (MHWCPRYLWDECFN)", "Label": "high bin"}
{"Substance": "Phage-46 (MHWCPIDLWAECYA)", "Label": "mid bin"}
{"Substance": "Phage-379 (MDWCPRNLWAECFS)", "Label": "low bin"}
{"Substance": "Phage-216 (MDWCPMNMWYQCFN)", "Label": "high bin"}
{"Substance": "Phage-208 (MDWCPTDMWIVCFA)", "Label": "high bin"}
{"Substance": "Phage-291 (MDWCPRYLWHVCFY)", "Label": "high bin"}
{"Substance": "Phage-359 (MDWCPRPLWHECFA)", "Label": "low bin"}

###

# Test system: anti-CD28 scFv
# Procedure Text: Phage binding ELISA (panning) of clonal phage on anti-CD28 scFv, with or without CD28 soluble protein
# Test Parameters: clonal phage supernatant; background signal

{"Substance": "Phage-57 (MDWCPRHRWVDCFY)", "Phage binding ELISA Backgroud signal": 0.073}
{"Substance": "Phage-86 (MDWCPRHLWAECFF)", "Phage binding ELISA Backgroud signal": 0.066}
{"Substance": "Phage-360 (MDWCPMFLWHECFS)", "Phage binding ELISA Backgroud signal": 0.092}
{"Substance": "Phage-286 (MERCPRYLWHMCYS)", "Phage binding ELISA Backgroud signal": 0.164}
{"Substance": "Phage-254 (MDWCPRYLWSECFA)", "Phage binding ELISA Backgroud signal": 0.078}
{"Substance": "Phage-85 (MDWCPMDLWYQCFN)", "Phage binding ELISA Backgroud signal": 0.063}
{"Substance": "Phage-377 (MDWCPFDLWLECFN)", "Phage binding ELISA Backgroud signal": 0.087}
{"Substance": "Phage-201 (MDWCPRDMWDQCFD)", "Phage binding ELISA Backgroud signal": 0.072}
{"Substance": "Phage-343 (MDWCPRDLWTQCFF)", "Phage binding ELISA Backgroud signal": 0.065}
{"Substance": "Phage-241 (MDWCPRHLWHECYS)", "Phage binding ELISA Backgroud signal": 0.066}
{"Substance": "Phage-79 (MDWCPRDLWHECFS)", "Phage binding ELISA Backgroud signal": 0.066}
{"Substance": "Phage-181 (MYWCPRDLWDVCFN)", "Phage binding ELISA Backgroud signal": 0.145}
{"Substance": "Phage-211 (MDWCPRNMWTVCFL)", "Phage binding ELISA Backgroud signal": 0.060}
{"Substance": "Phage-356 (MDWCPMYLWDECFF)", "Phage binding ELISA Backgroud signal": 0.082}
{"Substance": "Phage-213 (MNWCPSYMWDQCFA)", "Phage binding ELISA Backgroud signal": 0.125}
{"Substance": "Phage-179 (MDWCPWILWNECFN)", "Phage binding ELISA Backgroud signal": 0.141}
{"Substance": "Phage-202 (MFWCPMDMWDQCFN)", "Phage binding ELISA Backgroud signal": 0.091}
{"Substance": "Phage-41 (MAWCPRDKWSECFS)", "Phage binding ELISA Backgroud signal": 0.062}
{"Substance": "Phage-261 (MDWCPMFMWHECFN)", "Phage binding ELISA Backgroud signal": 0.102}
{"Substance": "Phage-237 (MDWCPSYLWHECFF)", "Phage binding ELISA Backgroud signal": 0.067}
{"Substance": "Phage-165 (MDWCPFYLWDECFL)", "Phage binding ELISA Backgroud signal": 0.070}
{"Substance": "Phage-224 (MDWCPKDRWNDCYF)", "Phage binding ELISA Backgroud signal": 0.078}
{"Substance": "Phage-193 (MDWCPMDMWVNCFN)", "Phage binding ELISA Backgroud signal": 0.059}
{"Substance": "Phage-164 (MDWCPKFLWDLCFA)", "Phage binding ELISA Backgroud signal": 0.100}
{"Substance": "Phage-44 (MDWCPIALWAECFN)", "Phage binding ELISA Backgroud signal": 0.111}
{"Substance": "Phage-200 (MFWCPFDMWHFCFN)", "Phage binding ELISA Backgroud signal": 0.150}
{"Substance": "Phage-279 (MDWCPRYLWAECFN)", "Phage binding ELISA Backgroud signal": 0.068}
{"Substance": "Phage-301 (MDWCPRYLWHECFF)", "Phage binding ELISA Backgroud signal": 0.082}
{"Substance": "Phage-276 (IDWCPKIHWDLCYF)", "Phage binding ELISA Backgroud signal": 0.072}
{"Substance": "Phage-243 (MDWCPRHLWYECFN)", "Phage binding ELISA Backgroud signal": 0.063}

###

# System: anti-CD28 scFv
# Procedure Text: Phage binding ELISA (panning) of clonal phage on anti-CD28 scFv, with or without CD28 soluble protein
# Test Parameters: clonal phage supernatant; background signal
Item-by-item account of Phage binding ELISA Backgroud signal

{"Substance": "Phage-229 (VPWCQIISGLECLT)", "Measured Target": "anti-CD28 scFv", "Phage binding ELISA Backgroud signal": 0.076}
{"Substance": "Phage-307 (MDWCPRYLWPVCFH)", "Measured Target": "anti-CD28 scFv", "Phage binding ELISA Backgroud signal": 0.179}
{"Substance": "Phage-334 (MDWCPRYLWDECFS)", "Measured Target": "anti-CD28 scFv", "Phage binding ELISA Backgroud signal": 0.069}
{"Substance": "Phage-50 (MDWCPPYLWNVCFS)", "Measured Target": "anti-CD28 scFv", "Phage binding ELISA Backgroud signal": 0.063}
{"Substance": "Phage-217 (MDWCPWDMWDKCFN)", "Measured Target": "anti-CD28 scFv", "Phage binding ELISA Backgroud signal": 0.101}
{"Substance": "Phage-281 (MDWCPRSLWFLCFN)", "Measured Target": "anti-CD28 scFv", "Phage binding ELISA Backgroud signal": 1.110}
{"Substance": "Phage-70 (ITWCPSSMWNRCFI)", "Measured Target": "anti-CD28 scFv", "Phage binding ELISA Backgroud signal": 0.065}
{"Substance": "Phage-80 (MDWCPMYLWNECFS)", "Measured Target": "anti-CD28 scFv", "Phage binding ELISA Backgroud signal": 0.071}
{"Substance": "Phage-65 (MDWCPMYLWNECFN)", "Measured Target": "anti-CD28 scFv", "Phage binding ELISA Backgroud signal": 0.064}
{"Substance": "Phage-246 (MDWCPKHLWNKCFN)", "Measured Target": "anti-CD28 scFv", "Phage binding ELISA Backgroud signal": 0.075}
{"Substance": "Phage-349 (LDWCPRHLWALCFN)", "Measured Target": "anti-CD28 scFv", "Phage binding ELISA Backgroud signal": 0.073}
{"Substance": "Phage-325 (MDWCPAYLWDECFA)", "Measured Target": "anti-CD28 scFv", "Phage binding ELISA Backgroud signal": 0.096}
{"Substance": "Phage-370 (MTWCPAYLWHECFN)", "Measured Target": "anti-CD28 scFv", "Phage binding ELISA Backgroud signal": 0.086}
{"Substance": "Phage-372 (MDWCPRYLWVDCFA)", "Measured Target": "anti-CD28 scFv", "Phage binding ELISA Backgroud signal": 0.095}
